- Test system: NRF2 (nuclear factor erythroid 2-related factor 2)
- EXPERIMENTAL_PROTOCOL: NRF2 +/-GSH activation assay (DiscoverX PathHunter NRF2 translocation kit, U2OS cells)
- Assay type: cell-based
- CONDITION_SUMMARY: +GSH; 30 minute compound-GSH pre-incubation; read-out: NRF2 activation +GSH EC50
VALUE_TYPE: EC50

# lookup: EC50 of C=C(Cc1nc([C@H](C)CCCCCC)no1)C(=O)O [Example 40]
27.5 µM

Same question, C=C(Cc1nc(C2(c3ccc(Cl)cc3)CCC2)no1)C(=O)O [Example 25] this time
> 100 µM

Try this compound too: C=C(Cc1nc(C(C)CCCCCC)no1)C(=O)O (stereo not shown) [Example 8]
28.1 µM

Input [2H]C([2H])([2H])C([2H])([2H])C([2H])([2H])C([2H])([2H])C([2H])([2H])C([2H])([2H])C([2H])([2H])C([2H])([2H])c1noc(CC(=C)C(=O)O)n1 [Example 34]
4.7 µM

* * *

- EXPERIMENTAL_PROTOCOL: Hepatocyte stability assay, mouse
- Type: in vitro ADME
- CONDITION_SUMMARY: mouse, hepatocytes, Hepatocyte stability Clint
VALUE_TYPE: hepatocyte CLint at 10 μM

// lookup hepatocyte CLint at 10 μM for C=C(Cc1nc(C2(c3ccc(OC(F)(F)C(F)F)cc3)CC2)no1)C(=O)O
30 µL/min/1e6 cells

Similarly, C=C(Cc1nc(Cc2ccc(-c3ccc(Cl)cc3)cc2)no1)C(=O)O ?
> 460 µL/min/1e6 cells

Same lookup for C=C(Cc1nc(C(F)(F)c2ccc(Cl)cc2)no1)C(=O)O , please.
31 µL/min/1e6 cells

Now the same for C=C(Cc1nc(Cc2ccc(CCCC)cc2)co1)C(=O)O
478 µL/min/1e6 cells

And then C=C(Cc1nc(C(F)(F)c2ccc(CCCC)cc2)no1)C(=O)O , what is it?
320 µL/min/1e6 cells

Could you do the same for C=C(Cc1nc(C2(c3ccc(I)cc3)CC2)no1)C(=O)O , please?
183 µL/min/1e6 cells

Entry to check: C=C(Cc1noc(C(F)(F)c2ccc(C(F)(F)F)cc2)n1)C(=O)O
79 µL/min/1e6 cells

What about this compound? C=C(Cc1nc(C2(c3ccc(F)cc3)CC2)no1)C(=O)O
37 µL/min/1e6 cells

What would you report for C=C(Cc1nc(C(F)(F)CCCCCCC)no1)C(=O)O ?
> 460 µL/min/1e6 cells

* * *

- System: NRF2 (nuclear factor erythroid 2-related factor 2)
- EXPERIMENTAL_PROTOCOL: NRF2 +/-GSH activation assay (DiscoverX PathHunter NRF2 translocation kit, U2OS cells)
- Assay type: cell-based
- CONDITION_SUMMARY: +GSH; 30 minute compound-GSH pre-incubation; read-out: NRF2 activation +GSH EC50
VALUE_TYPE: EC50 (µM)
Numeric only. Scale: µM

Request - read-out EC50 | tested on NRF2 (nuclear factor erythroid 2-related factor 2) | compound C=C(Cc1cc(CCCCCCCC)on1)C(=O)O
9.5

Please do the same for C=C(Cc1nc(Cc2ccc(CCCCC)cc2)no1)C(=O)O as well.
4

Please give the result for C=C(Cc1nc(C2(c3ccc(Cl)cc3)CC2)no1)C(=O)O too.
45.2

Also C=C(Cc1nc(-c2ccc(OC3CCCC3)cc2)no1)C(=O)O , if possible.
14.5

Param item: C=C(Cc1nc(-c2ccc(OCCCC)cc2)no1)C(=O)O
4.9

* * *

- EXPERIMENTAL_PROTOCOL: Hepatocyte stability assay, human
- Format: in vitro ADME
- CONDITION_SUMMARY: human, hepatocytes, Hepatocyte stability T½
Structures can show the parent of a compound that is named as a salt.
Checkbox rule: half-life at 10 μM lower than 40 min = 1 (yes); half-life at 10 μM not lower than 40 min = 0 (no).

Find out if reported half-life at 10 μM for C=C(Cc1nc(CCCCCCCC)co1)C(=O)O is less than 40 min
1 (yes)

Another molecule to look at: C=C(Cc1nc(C2(c3ccc(Br)cc3)CC2)no1)C(=O)O
0 (no)

And the next one, C=C(Cc1nc(Cc2ccc(C(F)(F)CCCC)cc2)no1)C(=O)O ?
1 (yes)

Another molecule: C=C(Cc1nc(C2(c3ccc(I)cc3)CC2)no1)C(=O)O
0 (no)

Check C=C(Cc1nc(Cc2ccc(-c3ccc(Cl)cc3)cc2)no1)C(=O)O too.
1 (yes)

Query C=C(Cc1nc(C(F)(F)c2ccc(I)cc2)no1)C(=O)O next
0 (no)

Try this molecule next: C=C(Cc1nc(Cc2ccc(C(F)(F)F)cc2)no1)C(=O)O
0 (no)

// same read-out, input: C=C(Cc1nc(C2(c3ccc(Br)c(Cl)c3)CC2)no1)C(=O)O
1 (yes)

Further, for C=C(Cc1nc(C2(c3ccc(SC(F)(F)F)cc3)CC2)no1)C(=O)O ?
0 (no)

What do you have for C=C(Cc1nc([C@@H](C)CCCCCC)no1)C(=O)O ?
0 (no)

Same question for C=C(Cc1nc(CCCCCCCC)cs1)C(=O)O please.
1 (yes)

Then this molecule: C=C(Cc1nc(C2(c3ccc(Cl)cc3)CC2)no1)C(=O)O
0 (no)

Also C=C(Cc1noc(CCCCCCCC)n1)C(=O)O , if possible.
1 (yes)

Lookup C=C(Cc1nc(C(C)(C)CCCCC)no1)C(=O)O
0 (no)

Also check C=C(Cc1nc(C(F)(F)CCCCCCC)no1)C(=O)O
1 (yes)

Here is the next molecule: C=C(Cc1nc(-c2ccc(C(F)(F)CCC)cc2)no1)C(=O)O
1 (yes)

What about this molecule? C=C(Cc1nc(C(F)(F)c2ccc(OC(F)(F)F)cc2)no1)C(=O)O
0 (no)

Same lookup for C=C(Cc1nc(C(F)(F)c2ccc(CCCC)cc2)no1)C(=O)O , please.
1 (yes)

Check C=C(Cc1nc(C2(c3ccc(OC(F)(F)C(F)F)cc3)CC2)no1)C(=O)O too.
0 (no)

Now try [2H]C([2H])([2H])C([2H])([2H])C([2H])([2H])C([2H])([2H])C([2H])([2H])C([2H])([2H])C([2H])([2H])C([2H])([2H])c1noc(CC(=C)C(=O)O)n1 .
1 (yes)

Try this molecule too: C=C(Cc1nc(Cc2cc(Cl)cc(Cl)c2)no1)C(=O)O
0 (no)

// same read-out, input: C=C(Cc1nc(Cc2ccc(C3CCC3)cc2)no1)C(=O)O
1 (yes)

Now consider C=C(Cc1nc(CCCCCCC(C)(F)F)no1)C(=O)O and answer again.
0 (no)

Okay, and C=C(Cc1nc(Cc2ccc(C(C)(C)C)cc2)no1)C(=O)O ?
0 (no)

Now the same for C=C(Cc1nc(C2(c3ccc(Cl)c(F)c3)CC2)no1)C(=O)O
0 (no)

Thanks! And C=C(Cc1nc(C(F)(F)c2cc(Cl)c(F)c(Cl)c2)no1)C(=O)O ?
0 (no)

And C=C(Cc1nc(C2(c3ccc(C4CCCC4)cc3)CC2)no1)C(=O)O ?
0 (no)

Next up: C=C(Cc1nc(CCCCCCCC)c(C)o1)C(=O)O
1 (yes)

Next up: C=C(Cc1nc(C(F)(F)c2ccc(C)c(Cl)c2)no1)C(=O)O
1 (yes)

Okay, and C=C(Cc1nc(Cc2ccc3ccccc3c2)no1)C(=O)O ?
0 (no)

What about C=C(Cc1nc(CCc2ccc(CCC)cc2)no1)C(=O)O ?
0 (no)

Try C=C(Cc1nc(C2CC3(C2)CC2(CCC2)C3)no1)C(=O)O next.
1 (yes)

Quick one: C/C(=C\c1nc(C2(c3ccc(Br)cc3)CC2)no1)C(=O)O
1 (yes)

Same question for C=C(Cc1cc(CCCCCCCC)ccn1)C(=O)O [Example 104, trifluoroacetic acid salt] please.
1 (yes)

Record: C=C(Cc1nc(CCCCCCCC(F)(F)F)no1)C(=O)O
0 (no)

Item: C=C(Cc1nc(C2(c3cc(F)c(Cl)c(F)c3)CC2)no1)C(=O)O
0 (no)

* * *

- System: NRF2 (nuclear factor erythroid 2-related factor 2)
- EXPERIMENTAL_PROTOCOL: NRF2 +/-GSH activation assay (DiscoverX PathHunter NRF2 translocation kit, U2OS cells)
- Format: cell-based
- CONDITION_SUMMARY: +GSH; normalised to DMF high control
Counter-ions that a name gives are not always drawn.
VALUE_TYPE: NRF2 activation +GSH Emax (%)
All answers are understood in %, so give the number only.

Requested read-out: NRF2 activation +GSH Emax. Entry: C=C(C(=O)O)C(O)c1nc(CCCCCCCC)no1 (stereo not shown)
213

Note, next up: C=C(Cc1nc(-c2ccc(CCCCC)cc2)no1)C(=O)O
162

Record: C=C(Cc1cccc(C2(c3ccc(Cl)cc3)CC2)n1)C(=O)O
4.0

Same again, this time with C=C(Cc1nc(C2CCCCCC2)no1)C(=O)O
17

C=C(Cc1nc(-c2ccc(OC3CCC3)cc2)no1)C(=O)O ?
168

Input C=C(Cc1nc(CCc2ccc(Cl)cc2)no1)C(=O)O
63

Input C=C(C(=O)O)C1(c2nc(C(F)(F)c3ccc(C(F)(F)F)cc3)no2)CC1
2.1

Try the molecule C=C(Cc1ccccc1Cl)C(=O)O [2-(2-chlorobenzyl)acrylic acid, reference compound]
9

# repeat for C=C(Cc1ncc(CCCCCCCC)cn1)C(=O)O
101

And for C=C(Cc1nc(Cc2ccc(C3(C(F)(F)F)CC3)cc2)no1)C(=O)O ?
61

Now this one: C=C(Cc1nc(-c2ccc(OCCC)c(Cl)c2)no1)C(=O)O
129

Try this molecule too: C=C(Cc1nc(C2(c3ccc(C)c(Cl)c3)CC2)no1)C(=O)O
100

Same read-out for C=C(Cc1nc(C(F)(F)c2ccc(CCCC)cc2)no1)C(=O)O ?
190

Please give the result for C#CCCCCCCc1noc(CC(=C)C(=O)O)n1 too.
55

Same read-out for C=C(Cc1nc(Cc2ccc(Cl)c(Cl)c2)no1)C(=O)O ?
46

Proceed to C=C(Cc1nc(-c2ccc(OCCCC)cc2)no1)C(=O)O
124

Same for C/C(=C\c1nc(C2(c3ccc(SC(F)(F)F)cc3)CC2)no1)C(=O)O
96.5

Another molecule to look at: C=C(Cc1nc(-c2ccc(C3(CCC)CC3)cc2)no1)C(=O)O
151

Cool, now C=C(Cc1nc(CCCCCCCCCCC)no1)C(=O)O
110

Try the molecule C=C(Cc1nc(C2CCCCC2)no1)C(=O)O
17

What about C=C(Cc1nc(C2(c3ccc(C(F)(F)F)cc3)CC2)co1)C(=O)O ?
190

Record: C=C(Cc1cc(CCCCCCCC)ccn1)C(=O)O [Example 104, trifluoroacetic acid salt]
216

Same thing, different molecule: C=C(Cc1nc(C(F)(F)c2ccc(OC(F)(F)F)cc2)no1)C(=O)O
183

Then C=C(Cc1nc(CCCCCCC)no1)C(=O)O ?
170

Now the molecule C=C(Cc1nc(C(F)(F)CCCCCCC)no1)C(=O)O
205

Next: C=C(Cc1nc(Cc2ccc(C)c(Cl)c2)no1)C(=O)O
16

Entry C=C(Cc1nc(Cc2ccc(C(F)(F)CCCC)cc2)no1)C(=O)O please
190

// next record C=C(Cc1nc(-c2ccc(CCCCC(F)(F)F)cc2)no1)C(=O)O
188

Next molecule up: C=C(Cc1nc(Cc2ccc(-c3ccc(Cl)cc3)cc2)no1)C(=O)O
140

Repeat for the following molecule: C=C(Cc1nc(C(F)(F)c2ccc(Br)cc2)no1)C(=O)O
130

Next up: [2H]C([2H])([2H])C([2H])([2H])C([2H])([2H])C([2H])([2H])C([2H])([2H])C([2H])([2H])C([2H])([2H])C([2H])([2H])c1noc(CC(=C)C(=O)O)n1
167

Try the molecule C=C(Cc1nc(Cc2ccc(C3CCCC3)cc2)no1)C(=O)O
283

And then C=C(Cc1nc(Cc2ccc(C(F)(F)F)cc2)no1)C(=O)O , what is it?
8

Input COC(=O)/C=C/C(=O)OC [dimethyl fumarate, reference compound]
20

Now the molecule C=C(Cc1nc(-c2ccc(C(F)(F)CCCC)cc2)no1)C(=O)O
181

Another molecule: C=C(Cc1nc(C2(c3ccc([S+]([O-])C(F)(F)F)cc3)CC2)no1)C(=O)O (stereo not shown)
−5

Field entry: C=C(Cc1nc(C(C)(C)CCCCC)no1)C(=O)O
73

Cited source for all entries: patent US12617762B2
